// provenance: PubChem BioAssay (Tox21)

measurement_description: qHTS assay to identify small molecule agonists of the RXR signaling pathway - cell viability counter screen (AID 1159529); note: nearly all actives have a fitted effect of over 50% in size
measurement_context: RXR-alpha-bla HEK293T viability, CellTiter-Glo, 16 h; series mostly up to 76.8 µM
Inconclusive results are not listed. Activity calls are given as the source filed them. Calls come from the whole dose curve; as a rule, active = well fitted cell-killing curve with a large enough effect in the repeat runs; inconclusive = weak or mixed curves, or effect the other way; inactive = no such curve, though single readings can be large or run the other way.
Outcomes: active, inactive

{"columns": ["compound", "assigned_class"],
 "data": [
  ["COC(=O)[C@]1(C)CCC[C@@]2(C)[C@H]1CC=C1C=C(C(C)C)CC[C@@H]12", "inactive"],
  ["c1cc(OCC2CO2)cc(OCC2CO2)c1 (stereo not drawn)", "active"],
  ["Cn1cccc1", "inactive"],
  ["ClC/C=C\\CCl", "inactive"],
  ["CC1=C(/C=C/C(C)=C/C=C/C(C)=C\\C=O)C(C)(C)CCC1", "active"],
  ["C[Si](C)(C)Cl", "inactive"],
  ["NCCCCCCNCCCCCCN", "inactive"],
  ["C1CC(COCC2CO2)CCC1COCC1CO1 (stereo not drawn)", "inactive"]
]}
